- EXPERIMENTAL_TARGET: murine SR-BI (Mus musculus)
- Construct: expressed in transfected cells; host or cells: ldlA-7 (LDL receptor deficient Chinese hamster ovary cells)
- Sequence (Q61009 whole entry): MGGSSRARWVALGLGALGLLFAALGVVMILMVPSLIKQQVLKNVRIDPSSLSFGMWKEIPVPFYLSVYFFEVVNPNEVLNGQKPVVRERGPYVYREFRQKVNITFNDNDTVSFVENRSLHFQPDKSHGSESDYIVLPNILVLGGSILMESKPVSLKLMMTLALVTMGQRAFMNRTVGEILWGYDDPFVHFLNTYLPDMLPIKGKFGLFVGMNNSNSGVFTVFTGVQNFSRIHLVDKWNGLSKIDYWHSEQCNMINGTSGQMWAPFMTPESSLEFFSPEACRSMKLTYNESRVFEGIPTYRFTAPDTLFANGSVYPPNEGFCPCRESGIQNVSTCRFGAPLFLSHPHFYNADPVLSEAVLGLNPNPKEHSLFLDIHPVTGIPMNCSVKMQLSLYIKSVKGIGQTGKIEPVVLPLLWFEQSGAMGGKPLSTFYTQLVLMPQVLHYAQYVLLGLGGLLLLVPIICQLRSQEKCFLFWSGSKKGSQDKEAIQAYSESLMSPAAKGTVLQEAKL
- PROTOCOL_NOTES: Uptake of DiI from DiI-HDL by ldlA[mSR-BI] cells (high throughput screen and concentration dependence)
- Assay type: cell-based
- CONDITIONS_USED: Test 1; DiI uptake from DiI-HDL, compounds at nominal 10 micromolar, ldlA[mSR-BI] cells
RECORDED_METRIC: ENDOHDL Test 1

# lookup: O=C(/C=C/c1cccc([N+](=O)[O-])c1)Nc1cccc(Cl)c1 on murine SR-BI (Mus musculus), ENDOHDL Test 1 = 0.55

# lookup: O=C(Nc1ccc(Oc2ccc(Cl)c3cccnc23)c(Cl)c1)c1ccc([N+](=O)[O-])cc1 on murine SR-BI (Mus musculus), ENDOHDL Test 1 = 0.55

# lookup: Cc1cc(C)c(CO)c(C)c1/C=N/Nc1ccc([N+](=O)[O-])cc1 on murine SR-BI (Mus musculus), ENDOHDL Test 1 = 0.53
